- target_entity: T1, CEACAM1 antigen (Sino Biological, Inc.) (UniProt P13688 35-428)
- T1 construct: Bought antigen coated on the ELISA plate; construct not described; also called CEACAM1 (CD66a) antigen; CD66a
- T1 sequence (looked up): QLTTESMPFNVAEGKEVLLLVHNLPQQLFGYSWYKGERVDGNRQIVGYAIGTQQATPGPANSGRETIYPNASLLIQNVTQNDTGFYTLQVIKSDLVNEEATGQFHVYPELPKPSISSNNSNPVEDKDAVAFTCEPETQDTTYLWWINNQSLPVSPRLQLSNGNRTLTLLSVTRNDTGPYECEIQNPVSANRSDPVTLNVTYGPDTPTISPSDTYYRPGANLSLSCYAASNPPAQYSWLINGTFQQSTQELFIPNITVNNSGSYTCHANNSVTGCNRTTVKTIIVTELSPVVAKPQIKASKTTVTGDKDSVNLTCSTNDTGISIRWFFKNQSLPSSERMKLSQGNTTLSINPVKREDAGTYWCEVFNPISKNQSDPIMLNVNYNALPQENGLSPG
- assay_name: ELISA, coated CEACAM1 100 ng/well, antibody 10000.00 ng/ml
reported_property: OD 450 nm (OD)
Please respond with the number in OD and leave the unit unwritten.

Can you look up the measured OD 450 nm of anti-CD66c chimeric antibody 8F5 (antibody, human IgG1, V domains shown, also called chimeric 8F5 antibody; chi 8F5) VH: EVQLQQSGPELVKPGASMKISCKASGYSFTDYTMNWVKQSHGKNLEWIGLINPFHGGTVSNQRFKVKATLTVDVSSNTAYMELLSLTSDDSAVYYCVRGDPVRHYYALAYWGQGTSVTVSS VL: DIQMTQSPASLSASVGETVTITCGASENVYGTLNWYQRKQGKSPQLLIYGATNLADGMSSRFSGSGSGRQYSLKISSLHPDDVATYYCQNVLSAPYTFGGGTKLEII for me? 1.21
